test: Saliva levels after intraperitoneal administration of ATB; format: in vivo, C57BL/6 mice; conditions: C57BL/6, mouse, saliva, ip, 500 mg/kg
Endpoint Name: AUC(0-t) (ng·h/mL)
// note: answer is a bare numeric in ng·h/mL

-- ask Suppose we examine the compound `O=C1CCC[C@@H]2[C@H]3CCCN4CCC[C@@H](CN12)[C@@H]34` ; what AUC(0-t) value has been reported?
-- reply 2680
